- System: NCI-H460 lung
- experiment_notes: NCI tumour cell line growth inhibition, 48 h
Decision: TGI >= 3 µM yields Condition met, all other cases yield Condition not met.

>  <molecule>
O=c1oc2cc(O)ccc2c(O)c1Cc1c(O)c2ccc(O)cc2oc1=O

>  <study_system>
NCI-H460 lung

>  <class_label>
Condition met

$$$$
>  <molecule>
COc1ccc(C(=O)/C=C/c2cccc(Nc3ccnc4cc(Cl)ccc34)c2)cc1

>  <study_system>
NCI-H460 lung

>  <class_label>
Condition met

$$$$
>  <molecule>
C[C@]12CC[C@@H]3c4ccc(O)cc4CC[C@H]3[C@@H]1Cc1cnc(N)nc12

>  <study_system>
NCI-H460 lung

>  <class_label>
Condition met

$$$$
>  <molecule>
Nc1ncnc2c1c(-c1ccc(Oc3ccccc3)cc1)nn2C[C@@H]1SSC[C@H]1O

>  <study_system>
NCI-H460 lung

>  <class_label>
Condition not met

$$$$
>  <molecule>
O=[N+]([O-])c1ccc(NNN=Nc2ccc(-c3nc4ccccc4s3)cc2)c([N+](=O)[O-])c1

>  <study_system>
NCI-H460 lung

>  <class_label>
Condition met

$$$$

## Input Confirm if TGI reported for the molecule CCOP(=O)(OCC)OC1c2[nH]cc(C(=O)OCc3ccccc3)c2-c2cc(C(=O)OC)[nH]c2C1OC (configuration not stated) is 3 µM or above.
## Output Condition met

## Input # iterate: COc1cc2c(cc1OC)[C@@H](Nc1ccc(F)cc1)C1COC(=O)[C@@H]1C2c1cc(OC)c(O)c(OC)c1 (some centres not stated)
## Output Condition not met

## Input # iterate: `ClCCCCCc1c2nc(c(CCCCCCl)c3ccc([nH]3)c(CCCCCCl)c3ccc([nH]3)c(CCCCCCl)c3nc1C=C3)C=C2`
## Output Condition met

## Input # iterate: CC(=O)OC(C)(C)CCC(=O)[C@](C)(O)[C@H]1[C@H](O)C[C@@]2(C)[C@@H]3CCc4c(cc(OC5OC(CO)C(O)C(O)C5O)c(O)c4C)C3(C)C(=O)C[C@]12C (some centres not stated)
## Output Condition met

## Input # iterate: `COc1cc(OC)c(C(=O)/C=C/c2cccc(C#N)c2)c(OC)c1`
## Output Condition not met

## Input # iterate: `CNC1(C(=O)O)CC1`
## Output Condition met

## Input # iterate: `COc1cc(OC)c2[nH]c3c(O)c(-c4c(C)cc5c([nH]c6c(OC)cc(OC)cc65)c4O)c(C)cc3c2c1`
## Output Condition met

## Input # iterate: `Cc1[nH]c(=O)nc(Nc2ccc(Cl)cc2)c1C(=O)N1CCN(CCO)CC1`
## Output Condition met

## Input # iterate: COc1cccc(NC(=O)CC(=O)N2N=C(N3c4ccccc4Sc4ccccc43)CC2c2ccccc2)c1 (configuration not stated)
## Output Condition met

## Input # iterate: `O=C1NOC(c2ccc(O)cc2)(c2ccc(O)cc2)c2ccccc21`
## Output Condition met

## Input # iterate: `Cc1ccc(-c2csc(NC(=O)N3CCN(c4cc5c(cc4F)c(=O)c(C(=O)O)cn5C4CC4)CC3)n2)cc1`
## Output Condition met

## Input # iterate: CCOC(=O)C1CCCCN1C(=O)c1ccc(Nc2cnc3cc(C(F)(F)F)ccc3n2)cc1 (configuration not stated)
## Output Condition met
